- assayProtocol: yeast display, Sf9 membrane polyspecificity reagent, FACS + sequencing; frameworks hold sequencing errors
endpointLabel: polyreactivity (PSR sort gate)

In the examples that follow, each entry is paired with its recorded polyreactivity (PSR sort gate).
>  <seqText>
QVQLVESGGGLVQAGGSLRLSCAASGTLYINVMGWYRQAPGKERELVAAISSNGARTYYADSVKGRFTISRDNAKNTVYLQMNSLKPEDTAVYYCNRVASVRARDYDYWGQGTQVTVSS

>  <polyreactivity (PSR sort gate)>
high polyreactivity

$$$$
>  <seqText>
QVQLVESGGGLVQAGGSLRLSCAGSGSIFSIYAMGWYRQAPGKERELVAAIRYDGGSTYYADSVKGRFTISRDNAKNTVYLQMNSLKPEDTAVYYCAAKVYFRRRGLHPYDYWGQGTQVNVSS

>  <polyreactivity (PSR sort gate)>
low polyreactivity

$$$$
>  <seqText>
QVQLVESGGGLVQAGGSLRLSCAASGRTFYYNAMGWSRQATGKERELVAAISGRAGSTYYADSVKGRYTISRDNAKNTVYLQMNSLKPEDTAVYYCNAVRYKYTGRFGYWGQGTQVTVSS

>  <polyreactivity (PSR sort gate)>
high polyreactivity

$$$$
>  <seqText>
QVQLVESGGGLVQAGGSLRLSCAASGFIFPWYAMGWYRQAPGKERELVAIISWDTGSTYYADSVKGRFTISRDNAKNTVYLQMNSLKPEDTAVYYCAAQQPYAGLYYWGQGTQVTVSS

>  <polyreactivity (PSR sort gate)>
low polyreactivity

$$$$
>  <seqText>
QVQLVESGGGLFQAGGSLRLSCAASGSIFERYTMGWYRQSPGKERELVAAISRSGGRTYYADSVKGRFTISRDNAKNTVYLQMNSLKAEDTAVYYCARTRVASKGYDYWGQGTQVTVSS

>  <polyreactivity (PSR sort gate)>
high polyreactivity

$$$$
>  <seqText>
QVQLVESGGGLVQAGGSLSLSCAASGYTLYANAMGWYRQAPGKERELVAAIRSGGSTNYADSVKGRFTISRDNAKNTVYLQMNSMKPEDTAVYYCAKDPYQDFLYLRYYGYYYWGQGTQVTVSS

>  <polyreactivity (PSR sort gate)>
low polyreactivity

$$$$
>  <seqText>
QVQLVESGGGLVQAGVSLRLSCAASGGIFADYAMGWYRQAPGKERELVAAISSGGNTNYADSVKGRFTISRDNAKNTVYLQMNSLKPEDTAVYYCNRDTSYYRYVYYEGNDYWGQGTQVTVSS

>  <polyreactivity (PSR sort gate)>
low polyreactivity

$$$$
>  <seqText>
QVQLVESGGGLVQAGGSLRLSCAASGSIFRYYAMGWYRQAPGKERELVAAISSRGGTTHYADSVKGRFTISRDNAKNTVYLQMNSLKPEDTAVYYCAADYYLATNPAPLAAGRGYWGQGTQVTVSS

>  <polyreactivity (PSR sort gate)>
high polyreactivity

$$$$

Kindly note the recorded polyreactivity (PSR sort gate) for "QVQLVESGGGLVQAGGSLRLSSAASGSIFYGNTMGWYRQAPGKERELVAAIRSVGRTYYADSVKGRFTISRDNAKNTDSLQMNSLKPEDTAVYYCAADPRSYFTSEYWGQGSQVTVSS" , which is low polyreactivity

Kindly note the recorded polyreactivity (PSR sort gate) for "QVQLVESGGGLVQAGGSLRLSCAASGITFSYYAMGWYRPAPGKERELVAAINSGGGSTYYADSVKGRFTISRDNAKNTVYLQMNSLKPEDTAVYYCAARYRSRYDYYYDRDYWGQGTQVTVSS" , which is low polyreactivity

Kindly note the recorded polyreactivity (PSR sort gate) for "QVQLVESGGGLVQAGGSLRLICAASGRIFYAYAMGWYRQAPGKERELVATITYGGGSTYYADSVKGRFTISRDNAKNTVYLQMNSLKPEDTAVYYCAAVRTGSTLYTIRYYYWGQGTQVTVSS" , which is low polyreactivity

Kindly note the recorded polyreactivity (PSR sort gate) for "QVQLVETGGGIVQAGGSLRLRCAAAGRHCYHNVMGWYRQAPGKERELVAGIRSRGGSTSYADSVKGRFTISRDNSKNTVYLQMNSLKPEDTAVYYCATDTTLWYVLYDYWGQGTQVTVSS" , which is low polyreactivity

Kindly note the recorded polyreactivity (PSR sort gate) for "QVQLVESGGGLVQAGGSLRLSCAASGSTFYNYAMGWYRPAPGNERELVAAIDTGGSTNYADSVKGRFTISRDNAKNTVYFQMNSLKPEVTALDYCNTVYLYGTHDYWGQGTQVTVSS" , which is low polyreactivity

Kindly note the recorded polyreactivity (PSR sort gate) for "QVQLVESGRALVQAGGSLRLSCAASGNTFEDYAMGWYRQAPGKERELVAAINSGGSTNYADSVKGRFTISRDNAKNTVYLQLNSLKPEDTAVYYCAAEPGEGFDYWGQGTQVTVSS" , which is low polyreactivity

Kindly note the recorded polyreactivity (PSR sort gate) for "QVQLVESGGGLVQAGGSLRLSCAASGSTFGNNAMGWYRQAAGKERELVAGINSGGSTTYADSVKGRFTISRDNAKNTVYLQMNSLKPEDTAVYYCAAVYYYYSWYSKHYYWGQGTQVTVSS" , which is low polyreactivity

Kindly note the recorded polyreactivity (PSR sort gate) for "QDQHVESGGGLVQAGGSLRLSCAASGIIFDYNAMGWYRQAPGKERELVAAITSTDNTNYADSVKGRLTISRDNAKNTVYLQMNSLKPEDTAVYYCNSDYWLSVVYAMDYWGQGTQVTVSS" , which is low polyreactivity

###

- assayProtocol: yeast display, Sf9 membrane polyspecificity reagent, FACS + sequencing; frameworks hold sequencing errors
endpointLabel: polyreactivity (PSR sort gate)

In the examples that follow, each entry is paired with its recorded polyreactivity (PSR sort gate).
>  <seqText>
QVQLVESGGGLVQAGGSLRLSCAASGLIFYYYSMGWYRQAPGKERELVAAISGGGSTYYADSVKGRFTISRDNAKNTVYLQMNSLKPEDTAVYYCAADTRTSYYKDDYDYWGQGTQVTVSS

>  <polyreactivity (PSR sort gate)>
low polyreactivity

$$$$
>  <seqText>
QVQLVESGGGLVQAGGSLRLSCAASGLTFPYYVMGWSRQAPGKERELVAAITTDDRTYYADSVKGRFTISRDNAKNTVYLQMNSLKPEDTAVYYCNVVIYYFNSRTVYYDYDYWGQGTQVTVSS

>  <polyreactivity (PSR sort gate)>
high polyreactivity

$$$$
>  <seqText>
QVQLVESGGGLVQAGGSLRLSCAASGRISAYAMGWYRQAPGKERELVAAISSRGGRTYYADSVKGRFTISRDNAKTTVYLQMNSLKPEDTAVYYCNALRPWEFDHWGHGTQVTVSS

>  <polyreactivity (PSR sort gate)>
high polyreactivity

$$$$
>  <seqText>
QVQLVESGGGLVQAGGSLRLSCAASGRIFSAYAIGCYRQSPWKERELVSAISRSGGRTYYADSVKGSFTISRDNAKNTVYLQMNSLKPEDTAVYYCAAARFAIVRGDYCGQGTQVTVSS

>  <polyreactivity (PSR sort gate)>
high polyreactivity

$$$$
>  <seqText>
QVHLVESGGGLVQAGGSLRLSWAASGRNFTRYAMGWYSQAPGKERELVASIRHSGGSTYYADSVKGRFTISRDNAKKTVYLLINSLKPEDTADFYCAARGKKGTRYKYNYWGQRTQVTVSS

>  <polyreactivity (PSR sort gate)>
high polyreactivity

$$$$
>  <seqText>
QVQLVESGGGLVQAGGSLRLSCAASGRTFSNYAMGWYRQAPGKERELVAAITGSGGSTYYADSVKGRFTISRDNAKNTVYLQMHSLKPEDTAVYYCNAYRASKYLTGNGHDYWGQGTQVTVSS

>  <polyreactivity (PSR sort gate)>
low polyreactivity

$$$$
>  <seqText>
QVQLVESGGGLVQAGGSLRLSCAASGIIFTGYAMGWYRQAPGKERELVAAISGSGGRTYYSDSVKGRFTISRDNAKNTVYLQMNSLKPEDTAVYYCAAYRVSDYDYWGQGTQVTVSS

>  <polyreactivity (PSR sort gate)>
high polyreactivity

$$$$
>  <seqText>
QVQLAESGGGLVQAGGSLRLSCSASGSTFVAYAMGWYRQAPGKERELVAAITRSGGSTYYADSVKGRFTISRDNAKNTVYLQMNSLKPEDTAVFYCAARHYRSRDGYWGQGTQVTVSS

>  <polyreactivity (PSR sort gate)>
high polyreactivity

$$$$

Kindly note the recorded polyreactivity (PSR sort gate) for "QVQLVESGGGLVQAGGSLRLSCAASGRTFSRYAMGCYRQAPGKERELVAVITSSGASTYYADSVKGRFTISRDNAKNTVYLQMNSLKPEDTAVYYCAADRYYRGRRMNYWRQGTQVTVSS" , which is high polyreactivity

Kindly note the recorded polyreactivity (PSR sort gate) for "QVQLEESGGGLVLAGGSLRLSCAASGSTFYNYAKGCYREAPGKERELVAAITFTGGSTYYADSVKGRFTISRDNAKNTVYLQMNSLKPEDTAVYYCNRLGPLGDQQQYDYWGQGTQVTVSS" , which is low polyreactivity

Kindly note the recorded polyreactivity (PSR sort gate) for "QVQLVESGGGLVQAGGSLRLSCAASGFIIVYYAMGWYRQAPGKERELVAAISRSGGSTYYADSVKGRFTISRDNAKNTVYLQMNSLKPEDTAVYYCNAVNVLAPSRGRRYDYWGEGTQVTVSS" , which is high polyreactivity
